Tested target: Tyrosine-protein phosphatase non-receptor type 1 (Homo sapiens) (UniProt P18031);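 also: recombinant enzyme assay with pNPP substrate, inhibition read after 30 min versus untreated control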
Sequence (P18031 whole entry): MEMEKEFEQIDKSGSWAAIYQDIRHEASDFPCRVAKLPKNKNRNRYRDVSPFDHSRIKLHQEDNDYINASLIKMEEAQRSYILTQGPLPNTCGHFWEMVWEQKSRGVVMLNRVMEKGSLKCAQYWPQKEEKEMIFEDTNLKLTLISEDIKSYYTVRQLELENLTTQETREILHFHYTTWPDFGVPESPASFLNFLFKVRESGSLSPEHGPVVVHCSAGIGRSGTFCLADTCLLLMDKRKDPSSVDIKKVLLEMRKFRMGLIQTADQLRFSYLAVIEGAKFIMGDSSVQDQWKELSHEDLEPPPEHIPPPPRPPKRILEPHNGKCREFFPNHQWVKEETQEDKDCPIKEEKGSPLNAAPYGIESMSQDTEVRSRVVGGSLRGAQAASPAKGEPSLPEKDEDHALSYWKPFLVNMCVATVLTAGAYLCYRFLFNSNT
Condition notes: at 10 µM
Description: Inhibition of recombinant human PTP1B using pNPP as substrate at 10 uM after 30 mins relative to control
Response key: label 1 means inhibition >= 20%; label 0 means inhibition < 20%.

Does inhibition meet or surpass 20% for C[C@H]1[C@H](C)CC[C@]2(C(=O)O)CC[C@]3(C)C(=CC[C@@H]4[C@@]5(C)CC[C@H](O)C(C)(C)[C@@H]5CC[C@]43C)[C@H]12 ?
label 1

Now the molecule CC(C)=CCc1cc([C@H]2Oc3c(ccc(O)c3CC=C(C)C)C(=O)C2O)ccc1O (some centres undefined)
label 1

Then what about the molecule COc1ccc(C2COc3c(ccc(O)c3CC=C(C)C)C2=O)c(O)c1 (centres undefined) ?
label 0

CC1(C)C=Cc2cc(C[C@@H](O)C(=O)c3ccc(O)cc3O)ccc2O1 ?
label 0

Now the molecule CC1(C)C=Cc2c(ccc([C@@H]3COc4c(ccc5c4C=CC(C)(C)O5)C3)c2O)O1
label 1

One more molecule: CC1(C)C=Cc2c(ccc3c2OCc2c-3oc3cc(O)ccc23)O1
label 0

Please answer likewise for CC1(C)C=Cc2cc([C@@H]3CC(=O)c4ccc(O)cc4O3)ccc2O1
label 0

Follow-up item: CC1(C)C=Cc2cc(/C=C/C(=O)c3ccc(O)cc3O)ccc2O1
label 1

Also check CC1(C)C=Cc2cc3cc(-c4ccc(O)cc4O)c(=O)oc3cc2O1
label 1

Next: CC(C)=CCc1cc(C[C@@H](O)C(=O)c2cc(CC=C(C)C)c(O)cc2O)ccc1O
label 1

Note, next up: CC(C)=CCc1c(O)ccc(C(=O)/C=C/c2ccc(O)cc2)c1O
label 0

What do you have for CC(C)=CCc1c(O)ccc2c1O[C@H](c1ccc3c(c1)C=CC(C)(C)O3)CC2=O ?
label 1

// same read-out, input: COc1ccc([C@@H]2COc3c(ccc4c3C=CC(C)(C)O4)C2)c(O)c1O
label 1

Next molecule up: CC1(C)C=Cc2c(cc(O)c3c(=O)c(-c4ccc(O)cc4)coc23)O1
label 1

Another molecule to check: CC1(C)C=Cc2c(ccc3cc(-c4ccc(O)cc4O)c(=O)oc23)O1
label 0

Request: CC1(C)C=Cc2cc3c(cc2O1)OCC(c1ccc(O)c2c1OC(C)(C)C=C2)=C3
label 1

Would you kindly repeat that for CC(C)=CCc1cc(/C=C/C(=O)c2ccc(O)c(CC=C(C)C)c2O)ccc1O ?
label 1

Another molecule: COc1ccc([C@@H]2COc3c(ccc4c3C=CC(C)(C)O4)C2)c(O)c1
label 0

Same for CC(C)=CCc1cc2c(cc1O)OCC(c1ccc(O)c3c1OC(C)(C)C=C3)=C2
label 1

###

Test system: A549
Test details: Antiproliferative activity against human A549 cells at 10 uM after 24 hrs by MTS assay relative to control
Format: functional
Condition notes: A549, 24 h
Hi, to clarify the labels: YES covers inhibition at 10 µM from 4% upward, NO covers anything below 4%.

Reported inhibition at 10 µM at or above 4%? CC(C)=CCc1c(O)ccc([C@@H]2COc3c(ccc(O)c3CC=C(C)C)C2)c1O
YES

Moving on to the next compound: COc1ccc([C@@H]2COc3c(ccc4c3C=CC(C)(C)O4)C2)c(O)c1
YES

# iterate: COc1ccc(C2COc3c(ccc(O)c3CC=C(C)C)C2=O)c(O)c1 (centres undefined)
YES

And CC1(C)C=Cc2c(ccc3cc(-c4ccc(O)cc4O)oc23)O1 ?
NO

Also CC(C)=CCc1c(O)cc(O)c2c(=O)c(-c3ccc(O)cc3O)coc12 ?
YES

Note, next up: CC(C)=CCc1c(O)ccc(C(=O)/C=C/c2cc(O)c3c(c2)C=CC(C)(C)O3)c1O
YES

Request: CC(C)=CCc1cc(/C=C/C(=O)c2ccc(O)c(CC=C(C)C)c2O)ccc1O
YES

Next up: COc1ccc(-c2coc3cc(O)ccc3c2=O)cc1
YES

Next record, please: CC(C)=CCc1c(O)ccc2c1OC[C@@H](c1ccc3c(c1O)C=CC(C)(C)O3)C2
YES

Param item: CC(C)=CCc1cc([C@@H]2CC(=O)c3ccc(O)cc3O2)ccc1O
NO

Please give the result for CC1(C)C=Cc2cc([C@@H]3CC(=O)c4ccc(O)cc4O3)ccc2O1 too.
NO

And then CC1(C)C=Cc2c(ccc3c2OC[C@@H](c2ccc(O)cc2O)C3)O1 , what is it?
YES

Continue with CC1(C)C=Cc2c(ccc3c2O[C@H]2c4ccc(O)cc4OC[C@@H]32)O1
YES

Check CC1(C)C=Cc2c(O)ccc(C3=Cc4ccc(O)cc4OC3)c2O1 too.
NO

Repeat with CC(C)=CCc1c(O)ccc([C@@H]2COc3c(ccc4c3C=CC(C)(C)O4)C2)c1O
YES

Also check COc1ccc2c(c1)O[C@H]1c3ccc(O)c(CC=C(C)C)c3OC[C@@H]21
YES

Field entry: CC1(C)C=Cc2c(ccc3c(=O)c(Oc4ccc(O)cc4O)coc23)O1
NO

Here is the next compound: CC1(C)C=Cc2cc3c(cc2O1)OCC(c1ccc(O)c2c1OC(C)(C)C=C2)=C3
NO

Now try CC(C)=CCc1cc(C[C@@H](O)C(=O)c2ccc(O)c(CC=C(C)C)c2O)ccc1O .
YES
